Measured values drawn from PubChem BioAssay AID651869 for this set.

System: T. cruzi CAI/72 in BESM cells, trypomastigote emergence, microscopy
Assay: cidal versus static activity on T. cruzi, late-stage follow-up, mechanism study for T. cruzi inhibitor project, imaging, CAI/72 strain, BESM host cells, 29-day treatment, set 2 (AID 651869)
Details: hits give high values
Item-by-item account of cidality slope score
Give the figure only, with no unit attached.

Solved entries (count: 3):
Ask | Which cidality slope score is reported for this compound? `C[C@@H]1CN([C@H](C)CO)C(=O)c2cccc(NC(=O)c3ccncc3)c2O[C@H]1CN(C)Cc1ccccc1`
Reply | 85

Ask | Which cidality slope score is reported for this compound? `O=C(Cn1ccnc1[N+](=O)[O-])NCc1ccccc1`
Reply | 12

Ask | Which cidality slope score is reported for this compound? `C[C@@H]1CN([C@@H](C)CO)C(=O)c2cccc(NC(=O)c3ccncc3)c2O[C@H]1CN(C)Cc1ccc(Cl)cc1`
Reply | 7.6

More entries:
Ask | Which cidality slope score is reported for this compound? `C[C@@H]1CN([C@H](C)CO)C(=O)c2cccc(NC(=O)c3ccncc3)c2O[C@H]1CN(C)Cc1ccc(Oc2ccccc2)cc1`
Reply | 1100

====

Test system: T. cruzi CAI/72 in BESM cells, trypomastigote emergence, microscopy
Experiment: cidal versus static activity on T. cruzi, late-stage follow-up, mechanism study for T. cruzi inhibitor project, imaging, CAI/72 strain, BESM host cells, 29-day treatment, set 2 (AID 651869)
Conditions: hits give high values
Item-by-item account of cidality slope score
Give the figure only, with no unit attached.

Solved entries (count: 5):
Ask | Which cidality slope score is reported for this compound? `C[C@@H]1CN([C@@H](C)CO)C(=O)c2cccc(NC(=O)c3ccncc3)c2O[C@H]1CN(C)Cc1cccc(Cl)c1`
Reply | 75

Ask | Which cidality slope score is reported for this compound? `CC(C)N1C[C@@H](C)[C@H](CN(C)Cc2cccc(Oc3ccccc3)c2)Oc2c(NC(=O)c3ccncc3)cccc2C1=O`
Reply | 1100

Ask | Which cidality slope score is reported for this compound? `C[C@H](CO)N1C[C@H](C)[C@H](CN(C)Cc2ccc(Oc3ccccc3)cc2)Oc2c(NC(=O)c3ccncc3)cccc2C1=O`
Reply | 85

Ask | Which cidality slope score is reported for this compound? `C[C@H]1CN([C@@H](C)CO)C(=O)c2cccc(NC(=O)c3ccncc3)c2O[C@@H]1CN(C)Cc1ccc(Oc2ccccc2)cc1`
Reply | 1100

Ask | Which cidality slope score is reported for this compound? `C[C@H]1CN([C@@H](C)CO)C(=O)c2cccc(NC(=O)c3ccncc3)c2O[C@H]1CN(C)Cc1ccc(Oc2ccccc2)cc1`
Reply | 1100

Next compound, cidality slope score to be filled in.
Ask | Which cidality slope score is reported for this compound? `C[C@@H]1CN([C@@H](C)CO)C(=O)c2cccc(NC(=O)c3ccncc3)c2O[C@H]1CN(C)Cc1ccc(Oc2ccccc2)cc1`
Reply | 1100
